- System: Klebsiella pneumoniae
- Assay: Antibacterial activity against Klebsiella pneumoniae 14-4 after 18 to 24 hrs
- Format: functional
# MIC per record follows

| Compound | Unit of measurement | Modifier | MIC |
| --- | --- | --- | --- |
| C[C@H]1COc2c(N3CCN(C)CC3)c(F)cc3c(=O)c(C(=O)O)cn1c23.C[C@H]1COc2c(N3CCN(C)CC3)c(F)cc3c(=O)c(C(=O)O)cn1c23.O | µg/mL | = | 8 |
| NCC1CN(c2nc3c(cc2F)c(=O)c(C(=O)O)cn3[C@@H]2C[C@@H]2F)C/C1=N\OCc1ccc(OC(F)(F)F)cc1 (some centres undefined) | µg/mL | = | 128 |
| CO/N=C1\CN(c2nc3c(cc2F)c(=O)c(C(=O)O)cn3[C@@H]2C[C@@H]2F)CC1(C)N (some centres undefined) | µg/mL | > | 128 |
| COc1ccc(CO/N=C2\CN(c3nc4c(cc3F)c(=O)c(C(=O)O)cn4[C@@H]3C[C@@H]3F)CC2CN)cc1 (some centres undefined) | µg/mL | = | 128 |

====

- Test system: Pseudomonas aeruginosa
- Assay: Antibacterial activity against Pseudomonas aeruginosa 14-19 after 18 to 24 hrs
- Assay type: functional
Measured MIC, listed per entry.

| Compound | MIC / µg/mL |
| --- | --- |
| NCC1CN(c2nc3c(cc2F)c(=O)c(C(=O)O)cn3[C@@H]2C[C@@H]2F)C/C1=N\OCc1ccc(Br)cc1 (stereo partly drawn) | 16 |
| NCC1CN(c2nc3c(cc2F)c(=O)c(C(=O)O)cn3[C@@H]2C[C@@H]2F)C/C1=N\OCc1ccc(OC(F)(F)F)cc1 (stereo partly drawn) | 16 |
| COc1c(N2C[C@@H]3CCCN[C@@H]3C2)c(F)cc2c(=O)c(C(=O)O)cn(C3CC3)c12 [MOXIFLOXACIN] | 1 |

====

- System: Klebsiella pneumoniae
- Assay: Antibacterial activity against Klebsiella pneumoniae 14-2 after 18 to 24 hrs
- Assay type: functional

| Molecule | MIC (µg/mL) |
| --- | --- |
| COc1ccc(CO/N=C2\CN(c3nc4c(cc3F)c(=O)c(C(=O)O)cn4[C@@H]3C[C@@H]3F)CC2CN)cc1 (stereo partly drawn) | 128 |
| C[C@H]1COc2c(N3CCN(C)CC3)c(F)cc3c(=O)c(C(=O)O)cn1c23.C[C@H]1COc2c(N3CCN(C)CC3)c(F)cc3c(=O)c(C(=O)O)cn1c23.O | 8 |
| NCC1CN(c2nc3c(cc2F)c(=O)c(C(=O)O)cn3[C@@H]2C[C@@H]2F)C/C1=N\OCc1ccc([N+](=O)[O-])cc1 (stereo partly drawn) | 128 |

====

- Tested on: Klebsiella pneumoniae
- Assay: Antibacterial activity against Klebsiella pneumoniae 14-2 after 18 to 24 hrs
- Format: functional

| Compound | Unit of measurement | MIC |
| --- | --- | --- |
| CCO/N=C1\CN(c2nc3c(cc2F)c(=O)c(C(=O)O)cn3[C@@H]2C[C@@H]2F)CC1(C)CN (some centres undefined) | µg/mL | 128 |
| O=C(O)c1cn(C2CC2)c2cc(N3CCNCC3)c(F)cc2c1=O [CIPROFLOXACIN] | µg/mL | 16 |
| COc1c(N2C[C@@H]3CCCN[C@@H]3C2)c(F)cc2c(=O)c(C(=O)O)cn(C3CC3)c12 [MOXIFLOXACIN] | µg/mL | 16 |
| NCC1CN(c2nc3c(cc2F)c(=O)c(C(=O)O)cn3[C@@H]2C[C@@H]2F)C/C1=N\OCc1ccc(Cl)cc1 (some centres undefined) | µg/mL | 128 |
